The values you see were collected from patent US20240217990A1.

# target_entity: TLR7 (Homo sapiens, UniProt Q9NYK1)
# Construct: Human peripheral blood mononuclear cells (PBMCs) consist of lymphocytes, monocytes and dendritic cells that express TLR7, TLR8 and TLR9; endogenous in cells
# Sequence (Q9NYK1 27-1049): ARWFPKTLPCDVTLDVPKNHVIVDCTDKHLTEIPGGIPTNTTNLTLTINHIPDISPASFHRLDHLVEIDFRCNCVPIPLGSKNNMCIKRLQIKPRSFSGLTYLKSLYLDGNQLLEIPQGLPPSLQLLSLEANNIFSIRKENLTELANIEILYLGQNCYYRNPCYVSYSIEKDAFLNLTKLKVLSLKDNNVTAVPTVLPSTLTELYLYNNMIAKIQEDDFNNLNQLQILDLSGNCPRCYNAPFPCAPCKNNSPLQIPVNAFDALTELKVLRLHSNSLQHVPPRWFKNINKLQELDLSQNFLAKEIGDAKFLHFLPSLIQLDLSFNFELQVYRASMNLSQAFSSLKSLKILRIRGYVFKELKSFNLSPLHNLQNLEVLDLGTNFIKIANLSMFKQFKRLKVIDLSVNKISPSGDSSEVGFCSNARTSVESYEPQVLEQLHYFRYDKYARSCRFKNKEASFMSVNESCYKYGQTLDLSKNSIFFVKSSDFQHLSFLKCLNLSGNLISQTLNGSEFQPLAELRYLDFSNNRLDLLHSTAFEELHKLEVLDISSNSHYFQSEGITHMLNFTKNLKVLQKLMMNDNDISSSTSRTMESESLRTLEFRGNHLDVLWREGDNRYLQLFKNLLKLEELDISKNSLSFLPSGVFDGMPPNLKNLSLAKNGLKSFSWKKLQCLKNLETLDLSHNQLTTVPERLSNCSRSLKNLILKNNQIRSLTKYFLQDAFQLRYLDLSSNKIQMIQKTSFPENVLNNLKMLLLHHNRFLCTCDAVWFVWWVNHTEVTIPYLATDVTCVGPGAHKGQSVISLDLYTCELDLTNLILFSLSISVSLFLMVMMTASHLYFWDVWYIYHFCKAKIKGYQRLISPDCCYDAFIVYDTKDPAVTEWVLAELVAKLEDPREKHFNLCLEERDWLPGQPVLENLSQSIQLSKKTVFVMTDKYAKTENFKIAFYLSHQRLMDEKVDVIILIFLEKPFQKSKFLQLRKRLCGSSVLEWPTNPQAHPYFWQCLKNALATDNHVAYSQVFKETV
# method: TLR7 human PBMC cell-based assay (antagonist, GS-986 stimulated cytokine release)
# experimental_context: human PBMCs; TLR7 agonist GS-986 400 nM, 6 hours; cytokines (IL-6 and IFNα) in supernatant; read-out: TLR-7 EC50
pEC50: −log10 of the molar value.
Response field class: enum, chosen by comparing pEC50 against bucket A = under 8, bucket B = from 8 up to 9, bucket C = 9 and over

Below are worked cases with known answers.
Cc1cc(-c2[nH]c3cc(C(=O)N4CCC5(CCNC5)C4)sc3c2C(C)C)cc(C)n1 (stereo not drawn) [Example 14] ... bucket A
Cc1c(-c2[nH]c3cc(CN4CCC(C)(O)CC4)sc3c2C(C)C)cn2ncnc2c1C [Example 266] ... bucket B
Cc1c(C(=O)N2CCC[C@@H]3NCC[C@@H]32)sc2c(C(C)C)c(-c3cc(C)c4ncnn4c3)[nH]c12 [Example 243] ... bucket A
Cc1cc(-c2[nH]c3cc(C(=O)N(C)C4CCNCC4)sc3c2C(C)C)cc(C)n1 [Example 10] ... bucket A
Cc1cc(-c2[nH]c3cc(-c4cnc5c(c4)CCNC5)sc3c2C(C)C)cn2ncnc12 [Example 218] ... bucket B
Cc1nc(N2CCNCC2)ccc1-c1cc2[nH]c(-c3cc(C)c4ncnn4c3)c(C(C)C)c2s1 [Example 217] ... bucket C
CN[C@@H]1CCN(C(=O)c2cc3[nH]c(-c4cc(C)c5ncnn5c4)c(C(C)C)c3s2)C1 [Example 72] ... bucket B
Cc1cc(-c2[nH]c3cc(-c4ccc5c(c4)CCNC5)sc3c2C(C)C)cn2ncnc12 [Example 223] ... bucket C
Cc1cc(-c2[nH]c3cc(C(=O)N4CC[C@H](N)C4)sc3c2C(C)C)cc(C)n1 [Example 7] ... bucket A

Incoming: # bin lookup: classify Cc1cc(-c2[nH]c3cc(C(=O)N4CCNC(C#N)C4)sc3c2C(C)C)cc(C)n1 (stereo not drawn) [Example 9] by its pEC50
Outgoing: bucket A
